Listed compounds paired with reported plant injury at 35 g/ha
- Test system: Zea mays L. (corn)
- protocolText: General post-emergent herbicidal activity, foliar application
- Assay type: in vivo
- settings: 336 h, 35 g ai/ha, scored after 14 days, read-out: % Visual Growth Reduction ZEAMX
Just the number please, in %, no unit attached.

# compound, plant injury at 35 g/ha [%]
measured = [
    ("COC(=O)c1nc(C(F)(F)F)cc(N)c1Cl [Prior Art 1, reference compound]", 0),
    ("Nc1c(Cl)c(C(=O)O)nc(C(F)F)c1Cl [Compound F13]", 0),
    ("Nc1cc(C(F)F)nc(C(=O)O)c1Cl [Compound F27]", 20),
]

Form field: reported plant injury at 35 g/ha of CC(F)c1cc(N)c(Cl)c(C(=O)O)n1 (centres unmarked) [Compound F24]
0

Form field: reported plant injury at 35 g/ha of COC(=O)c1nc(CF)c(Cl)c(N)c1Cl [Compound F1]
0

Form field: reported plant injury at 35 g/ha of COC(=O)c1nc(C(F)F)cc(N)c1Cl [Compound F12]
15

Form field: reported plant injury at 35 g/ha of COC(=O)c1nc(C(C)F)c(F)c(N)c1Cl (centres unmarked) [Compound F15]
0

Form field: reported plant injury at 35 g/ha of COC(=O)c1nc(C(C)F)c(Cl)c(N)c1Cl (centres unmarked) [Compound F10]
0

====

- Tested on: Amaranthus retroflexus L. (pigweed, redroot)
- protocolText: General post-emergent herbicidal activity, foliar application
- Type: in vivo
- settings: Amaranthus retroflexus, 336 h, 70 g ai/ha, foliar post-emergent, scored after 14 days; read-out: % Visual Growth Reduction AMARE
readoutName: pest or weed control at 70 g/ha (%)
Just the number please, in %, no unit attached.

Some solved cases for reference:
# molecule, experimentalTarget, pest or weed control at 70 g/ha, %
records = [
    ("CC(F)c1cc(N)c(Cl)c(C(=O)O)n1 (centres unmarked)", "Amaranthus retroflexus L. (pigweed, redroot)", 100),
    ("COC(=O)c1nc(C(F)F)c(F)c(N)c1Cl", "Amaranthus retroflexus L. (pigweed, redroot)", 5),
    ("Nc1cc(C(F)F)nc(C(=O)O)c1Cl", "Amaranthus retroflexus L. (pigweed, redroot)", 90),
    ("COC(=O)c1nc(C(C)F)c(Cl)c(N)c1Cl (centres unmarked)", "Amaranthus retroflexus L. (pigweed, redroot)", 98),
    ("CC(F)c1nc(C(=O)O)c(Cl)c(N)c1Cl (centres unmarked)", "Amaranthus retroflexus L. (pigweed, redroot)", 90),
    ("COC(=O)c1nc(C(C)F)c(F)c(N)c1Cl (centres unmarked)", "Amaranthus retroflexus L. (pigweed, redroot)", 90),
]

Next:
Form field: reported pest or weed control at 70 g/ha of COC(=O)c1nc(C(F)CF)cc(N)c1Cl (centres unmarked)
80

====

- Test system: Euphorbia heterophylla L. (poinsettia, wild)
- protocolText: General post-emergent herbicidal activity, foliar application
- Format: in vivo
- settings: Euphorbia heterophylla, 336 h, 140 g ai/ha, foliar post-emergent, scored after 14 days; read-out: % Visual Growth Reduction EPHHL
- Description: A weighed amount, determined by the highest rate to be tested, of each test compound was placed in a 25 mL glass vial and was dissolved in 4 mL of a 97:3 v/v (volume/volume) mixture of acetone and dimethyl sulfoxide to obtain concentrated stock solutions which will be referred to as General Purpose Solvent. […]
Listed molecules paired with reported pest or weed control at 140 g/ha
Just the number please, in %, no unit attached.

# molecule, experimentalTarget, pest or weed control at 140 g/ha [%]
data = [
    ("Nc1c(F)c(CF)nc(C(=O)O)c1Cl [Compound F36]", "Euphorbia heterophylla L. (poinsettia, wild)", 100),
    ("COC(=O)c1nc(C(C)(F)CF)cc(N)c1Cl (centres unmarked) [Compound F11]", "Euphorbia heterophylla L. (poinsettia, wild)", 10),
    ("Nc1c(F)c(C(F)F)nc(C(=O)O)c1Cl [Compound F32]", "Euphorbia heterophylla L. (poinsettia, wild)", 30),
    ("COC(=O)c1nc(CC(F)F)c(F)c(N)c1Cl [Compound F2]", "Euphorbia heterophylla L. (poinsettia, wild)", 100),
]

Next:
Hi! What's the reported pest or weed control at 140 g/ha for COC(=O)c1nc(CF)c(F)c(N)c1Cl [Compound F14] on Euphorbia heterophylla L. (poinsettia, wild)?
100

====

- System: Echinochloa crus-galli (L.) Beauv. (barnyardgrass)
- protocolText: General post-emergent herbicidal activity, foliar application
- Type: in vivo
- settings: Echinochloa crus-galli, 336 h; 280 g ai/ha, foliar post-emergent, scored after 14 days; read-out: % Visual Growth Reduction ECHCG
readoutName: pest or weed control at 280 g/ha
Provide a numeric answer, followed by its unit.

# compound, readoutName, result
rows = [
    ("Nc1c(F)c(CF)nc(C(=O)O)c1Cl", "pest or weed control at 280 g/ha", "95%"),
    ("COC(=O)c1nc(CCl)cc(N)c1Cl", "pest or weed control at 280 g/ha", "0%"),
]

Form field: reported pest or weed control at 280 g/ha of "COC(=O)c1nc(C(F)F)cc(N)c1Cl"
80%

Form field: reported pest or weed control at 280 g/ha of COC(=O)c1nc(C(F)CF)cc(N)c1Cl (centres unmarked)
0%

====

- Test system: Oryza sativa L. (rice)
- protocolText: General post-emergent herbicidal activity, foliar application
- Assay type: in vivo
- settings: Oryza sativa, 336 h, 280 g ai/ha, scored after 14 days, read-out: % Visual Growth Reduction ORYSA
Listed compounds paired with reported plant injury at 280 g/ha
Just the number please, in %, no unit attached.

Some solved cases for reference:
# compound, experimentalTarget, measurementUnits, plant injury at 280 g/ha
records = [
    ("COC(=O)c1nc(CCl)c(F)c(N)c1Cl [Compound F21]", "Oryza sativa L. (rice)", "%", 0),
    ("COC(=O)c1nc(C(C)F)cc(N)c1Cl (stereo not drawn) [Compound F19]", "Oryza sativa L. (rice)", "%", 0),
    ("Nc1cc(C(F)F)nc(C(=O)O)c1Cl [Compound F27]", "Oryza sativa L. (rice)", "%", 20),
]

Next:
Form field: reported plant injury at 280 g/ha of COC(=O)c1nc(CCF)c(F)c(N)c1Cl [Compound F29]
0

====

- Tested on: Amaranthus retroflexus L. (pigweed, redroot)
- protocolText: General post-emergent herbicidal activity, foliar application
- Type: in vivo
- settings: Amaranthus retroflexus, 336 h, 35 g ai/ha, foliar post-emergent, scored after 14 days; read-out: % Visual Growth Reduction AMARE
Listed compounds paired with reported pest or weed control at 35 g/ha
Just the number please, in %, no unit attached.

Some solved cases for reference:
# compound, pest or weed control at 35 g/ha [%]
rows = [
    ("COC(=O)c1nc(CF)c(F)c(N)c1Cl", 70),
    ("COC(=O)c1nc(CF)c(Cl)c(N)c1Cl", 55),
    ("COC(=O)c1nc(C(C)F)c(F)c(N)c1Cl (stereo not shown)", 90),
    ("COC(=O)c1nc(C(F)F)cc(N)c1Cl", 80),
]

Hi! What's the reported pest or weed control at 35 g/ha for "Nc1c(F)c(CF)nc(C(=O)O)c1Cl" on Amaranthus retroflexus L. (pigweed, redroot)?
100

Hi! What's the reported pest or weed control at 35 g/ha for "Nc1cc(C(F)F)nc(C(=O)O)c1Cl" on Amaranthus retroflexus L. (pigweed, redroot)?
90

Hi! What's the reported pest or weed control at 35 g/ha for CC(F)c1cc(N)c(Cl)c(C(=O)O)n1 (stereo not shown) on Amaranthus retroflexus L. (pigweed, redroot)?
90

Hi! What's the reported pest or weed control at 35 g/ha for COC(=O)c1nc(C(C)F)cc(N)c1Cl (stereo not shown) on Amaranthus retroflexus L. (pigweed, redroot)?
100

Hi! What's the reported pest or weed control at 35 g/ha for COC(=O)c1nc(C(C)F)c(Cl)c(N)c1Cl (stereo not shown) on Amaranthus retroflexus L. (pigweed, redroot)?
85

Hi! What's the reported pest or weed control at 35 g/ha for "Nc1c(Cl)c(C(=O)O)nc(C(F)F)c1Cl" on Amaranthus retroflexus L. (pigweed, redroot)?
90

====

Listed compounds paired with reported pest or weed control at 280 g/ha
- Test system: Viola tricolor L. (pansy)
- protocolText: General post-emergent herbicidal activity, foliar application
- Format: in vivo
- settings: Viola tricolor, 336 h, 280 g ai/ha, foliar post-emergent, scored after 14 days; read-out: % Visual Growth Reduction VIOTR
Just the number please, in %, no unit attached.

Some solved cases for reference:
# compound, pest or weed control at 280 g/ha, %
records = [
    ("CC(F)c1cc(N)c(Cl)c(C(=O)O)n1 (stereo not shown) [Compound F24]", 100),
    ("Nc1c(F)c(C(F)F)nc(C(=O)O)c1Cl [Compound F32]", 10),
    ("C=C(F)c1cc(N)c(Cl)c(C(=O)OC)n1 [Compound F6]", 0),
    ("COC(=O)c1nc(CCF)c(F)c(N)c1Cl [Compound F29]", 90),
    ("COC(=O)c1nc(C(F)F)c(F)c(N)c1Cl [Compound F3]", 10),
    ("Nc1c(F)c(CF)nc(C(=O)O)c1Cl [Compound F36]", 75),
    ("COC(=O)c1nc(CCl)c(F)c(N)c1Cl [Compound F21]", 0),
    ("COC(=O)c1nc(C(F)F)c(Cl)c(N)c1Cl [Compound F7]", 0),
]

Form field: reported pest or weed control at 280 g/ha of COC(=O)c1nc(CCC(F)(F)F)c(Cl)c(N)c1Cl [Compound F5]
0

Form field: reported pest or weed control at 280 g/ha of COC(=O)c1nc(CF)c(Cl)c(N)c1Cl [Compound F1]
10

Form field: reported pest or weed control at 280 g/ha of CC(F)c1nc(C(=O)O)c(Cl)c(N)c1F (stereo not shown) [Compound F30]
50
